test system: Huh-7; experiment: Growth inhibition of human HuH7 cells after 48 hrs by MTT assay; format: functional, cell-based; settings: Huh-7, 48 h
measured-property: pIC50
Keep in mind that pIC50 stands for -log10 of concentration in molar terms.

* COc1ccc2c(=O)c(/C=C/C(=O)NCc3ccccc3F)coc2c1 | 5.07
* COc1ccc2c(=O)c(/C=C/C(=O)NCCc3ccc(F)cc3)coc2c1 | 4.53
* COc1ccc(CNC(=O)/C=C/c2coc3cc(OC)ccc3c2=O)cc1 | 5.12
* COc1ccc2c(=O)c(/C=C/C(=O)Nc3cccc(C)c3)coc2c1 | 4.81
* COc1ccc2c(=O)c(/C=C/C(=O)NCCc3cccc(F)c3)coc2c1 | 5.05

Incoming: State, in one line, measured pIC50 of COc1ccc2c(=O)c(/C=C/C(=O)NCc3ccc(F)cc3)coc2c1
Outgoing: 4.68

Incoming: State, in one line, measured pIC50 of COc1ccc2c(=O)c(/C=C/C(=O)NCc3cccc(F)c3)coc2c1
Outgoing: 5.00

* * *

Catalogue of compounds with associated IC50
tested on: Hepatitis B virus; assay: Antiviral activity against HBV infected in human HepG2(2.2.15) cells assessed as inhibition of HBsAg production after 9 days by ELISA; assay type: functional, organism-based; conditions: HepG2 2.2.15, 216 h
Return type: number; implicit unit µM.

Some compounds with known IC50 results, for comparison:
- COc1ccc2c(=O)c(/C=C/C(=O)NCc3ccc(C)cc3)coc2c1: 82.6
- COc1ccc2c(=O)c(/C=C/C(=O)Nc3ccccc3C)coc2c1: 14.9
- O=C(/C=C/c1coc2cc(O)ccc2c1=O)NCCc1ccc(F)cc1: 14.6

Incoming: With Hepatitis B virus as the test system, provide measured IC50 for this compound: COc1ccc2c(=O)c(/C=C/C(=O)NCc3ccc(F)cc3)coc2c1
Outgoing: 58.8

Incoming: With Hepatitis B virus as the test system, provide measured IC50 for this compound: COc1ccc(CNC(=O)/C=C/c2coc3cc(O)ccc3c2=O)cc1
Outgoing: 10.2

Incoming: With Hepatitis B virus as the test system, provide measured IC50 for this compound: COc1ccc2c(=O)c(/C=C/C(=O)Nc3ccc(Cl)cc3)coc2c1
Outgoing: 91.7

Incoming: With Hepatitis B virus as the test system, provide measured IC50 for this compound: O=C(/C=C/c1coc2cc(O)ccc2c1=O)Nc1ccccc1
Outgoing: 45.5

Incoming: With Hepatitis B virus as the test system, provide measured IC50 for this compound: COc1ccc2c(=O)c(/C=C/C(=O)NCc3cccc(F)c3)coc2c1
Outgoing: 83.8

Incoming: With Hepatitis B virus as the test system, provide measured IC50 for this compound: COc1ccc2c(=O)c(/C=C/C(=O)NCc3ccc(F)cc3F)coc2c1
Outgoing: 14.3

Incoming: With Hepatitis B virus as the test system, provide measured IC50 for this compound: COc1ccc2c(=O)c(/C=C/C(=O)NCCc3ccccc3F)coc2c1
Outgoing: 47.9

* * *

assay: Cytotoxicity against human HepG2(2.2.15) cells compound treated for 48 hrs followed by incubation for 9 days by MTT assay; format: cell-based
measured-property: CC50 at 48 h (µM)
Return type: number; implicit unit µM.

Some compounds with known CC50 at 48 h results, for comparison:
• Cc1ccccc1NC(=O)/C=C/c1coc2cc(O)ccc2c1=O = 374
• COc1ccc2c(=O)c(/C=C/C(=O)NCCc3ccccc3F)coc2c1 = 457
• COc1ccc2c(=O)c(/C=C/C(=O)NCc3ccc(C)cc3)coc2c1 = 257
• CCOc1ccc(NC(=O)/C=C/c2coc3cc(OC)ccc3c2=O)cc1 = 460
• COc1ccc2c(=O)c(/C=C/C(=O)NCCc3ccc(F)cc3)coc2c1 = 786

Incoming: State, in one line, measured CC50 at 48 h of COc1cccc(NC(=O)/C=C/c2coc3cc(OC)ccc3c2=O)c1
Outgoing: 1130

Incoming: State, in one line, measured CC50 at 48 h of COc1ccc(NC(=O)/C=C/c2coc3cc(O)ccc3c2=O)cc1
Outgoing: 976

Incoming: State, in one line, measured CC50 at 48 h of COc1ccc2c(=O)c(/C=C/C(=O)Nc3ccc(C)cc3)coc2c1
Outgoing: 979

Incoming: State, in one line, measured CC50 at 48 h of COc1ccc2c(=O)c(/C=C/C(=O)Nc3ccccc3)coc2c1
Outgoing: 523

Incoming: State, in one line, measured CC50 at 48 h of O=C(/C=C/c1coc2cc(O)ccc2c1=O)NCCc1ccc(F)cc1
Outgoing: 102
